- TARGET_UNDER_TEST: NMDA-receptor subtype 2B (Rattus norvegicus, UniProt P35439+Q00960)
- Construct: Membranes were prepared by homogenization of the whole brain minus cerebellum and medulla oblongata
- Sequence (Q00960 27-1482, other chains not shown): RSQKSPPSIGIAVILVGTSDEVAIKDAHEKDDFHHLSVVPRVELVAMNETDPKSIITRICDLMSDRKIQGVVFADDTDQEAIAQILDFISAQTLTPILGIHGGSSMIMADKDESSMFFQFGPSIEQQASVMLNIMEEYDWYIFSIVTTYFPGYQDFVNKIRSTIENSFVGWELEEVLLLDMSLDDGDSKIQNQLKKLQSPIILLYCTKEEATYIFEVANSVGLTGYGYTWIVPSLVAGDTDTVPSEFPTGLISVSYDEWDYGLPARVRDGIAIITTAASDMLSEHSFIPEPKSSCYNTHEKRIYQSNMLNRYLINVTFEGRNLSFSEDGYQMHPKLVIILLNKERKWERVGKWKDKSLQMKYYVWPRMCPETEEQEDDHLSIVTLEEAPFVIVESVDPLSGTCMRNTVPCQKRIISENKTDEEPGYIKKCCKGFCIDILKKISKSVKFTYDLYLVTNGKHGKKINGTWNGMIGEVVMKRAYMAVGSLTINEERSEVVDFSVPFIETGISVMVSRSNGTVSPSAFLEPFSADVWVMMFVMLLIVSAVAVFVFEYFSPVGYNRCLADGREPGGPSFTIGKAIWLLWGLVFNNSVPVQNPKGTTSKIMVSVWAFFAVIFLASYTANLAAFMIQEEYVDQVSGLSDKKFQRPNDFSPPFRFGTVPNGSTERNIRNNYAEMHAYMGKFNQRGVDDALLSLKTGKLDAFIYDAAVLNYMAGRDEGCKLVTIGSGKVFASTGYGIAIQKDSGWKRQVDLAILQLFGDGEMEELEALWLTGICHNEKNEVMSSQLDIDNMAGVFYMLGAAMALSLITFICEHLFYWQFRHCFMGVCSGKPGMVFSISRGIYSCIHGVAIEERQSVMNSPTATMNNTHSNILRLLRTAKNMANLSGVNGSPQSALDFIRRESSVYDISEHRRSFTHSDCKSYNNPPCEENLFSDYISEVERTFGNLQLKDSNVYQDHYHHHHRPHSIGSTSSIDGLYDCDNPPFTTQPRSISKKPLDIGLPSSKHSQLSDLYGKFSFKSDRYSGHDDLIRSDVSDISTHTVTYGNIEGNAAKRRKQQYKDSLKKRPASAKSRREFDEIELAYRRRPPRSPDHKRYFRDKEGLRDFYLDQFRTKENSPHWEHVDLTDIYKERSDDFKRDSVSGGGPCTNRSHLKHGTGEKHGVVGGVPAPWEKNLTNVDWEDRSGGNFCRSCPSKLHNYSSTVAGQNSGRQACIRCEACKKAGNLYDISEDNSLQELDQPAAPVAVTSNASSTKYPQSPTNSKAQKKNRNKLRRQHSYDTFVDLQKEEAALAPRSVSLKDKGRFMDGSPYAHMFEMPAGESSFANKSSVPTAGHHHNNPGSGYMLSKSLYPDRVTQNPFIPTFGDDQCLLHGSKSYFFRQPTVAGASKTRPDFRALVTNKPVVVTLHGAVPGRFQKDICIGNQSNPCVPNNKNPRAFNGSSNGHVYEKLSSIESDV
- TEST_NAME: 3H-Ro 25-6981 binding (displacement) on rat brain membranes
- MEASUREMENT_CONDITIONS: displacement of 5 nM 3H-Ro 25-6981, rat whole brain (minus cerebellum and medulla oblongata) membranes, 2 hours at 4° C., Tris-HCl 50 mM pH 7.4
Structures can show the parent of a compound that is named as a salt.
MEASUREMENT_LABEL: IC50 (nM)

For orientation, consider the following solved cases.
| COMPOUND | TARGET_UNDER_TEST | MEASUREMENT_LABEL | UNIT_ABBREVIATION | READING |
| --- | --- | --- | --- | --- |
| Cc1nccn1Cc1cc(-c2ccc3ccccc3c2)cnn1 | NMDA-receptor subtype 2B (Rattus norvegicus, UniProt P35439+Q00960) | IC50 | nM | 22 |
| Cc1nccn1Cc1cc(-c2ccc(Cl)c(Cl)c2)cnn1 [Example 13, hydrochloride] | NMDA-receptor subtype 2B (Rattus norvegicus, UniProt P35439+Q00960) | IC50 | nM | 11 |

(I) Cc1nccn1Cc1cc(-c2ccc(F)c(C(C)(F)F)c2)cnn1 [Example 11, hydrochloride]
(II) Cc1nccn1Cc1cc(-c2cccc(C(F)F)c2)cnn1 [Example 25, hydrochloride]
(III) Cc1nccn1Cc1cc(-c2ccc3sccc3c2)cnn1 [Example 15, hydrochloride]
(IV) Cc1cc(-c2cnnc(Cn3ccnc3C)c2)ccc1F [Example 16, hydrochloride]
(V) Cc1cc(-c2cnnc(Cn3ccnc3C)c2)ccc1Cl [Example 30, hydrochloride]
[in] Task field, ranking: reported IC50, descending order. Record the ranking as a list of labels in the requested order.
[out] II, I, III, IV, V

###

- TARGET_UNDER_TEST: NMDA-receptor subtype 2B (Rattus norvegicus, UniProt P35439+Q00960)
- Construct: Membranes were prepared by homogenization of the whole brain minus cerebellum and medulla oblongata
- TEST_NAME: 3H-Ro 25-6981 binding (displacement) on rat brain membranes
- MEASUREMENT_CONDITIONS: displacement of 5 nM 3H-Ro 25-6981, rat whole brain (minus cerebellum and medulla oblongata) membranes, 2 hours at 4° C., Tris-HCl 50 mM pH 7.4
Where a name gives a salt, the structure may show the parent alone.
MEASUREMENT_LABEL: IC50 (nM)

For orientation, consider the following solved cases.
| COMPOUND | IC50 / nM |
| --- | --- |
| Cc1nccn1Cc1cc(-c2cccc(C(F)(F)F)c2F)cnn1 [Example 58, hydrochloride] | 37 |
| Cc1nccn1Cc1cc(-c2cccc(C(C)C)c2)cnn1 [Example 42, hydrochloride] | 48 |
| COc1cccc2c(-c3cnnc(Cn4ccnc4C)c3)cccc12 [Example 36, hydrochloride] | 77 |
| Cc1nccn1Cc1cc(-c2ccc(F)c(C(F)(F)F)c2)cnn1 [Example 3, hydrochloride] | 38 |
| Cc1nccn1Cc1cc(-c2cc(F)cc(C(C)(F)F)c2)cnn1 [Example 31, hydrochloride] | 31 |

(I) Cc1nccn1Cc1cc(-c2ccc3c4c(cccc24)CC3)cnn1 [Example 45, hydrochloride]
(II) COc1cc(-c2cnnc(Cn3ccnc3C)c2)c2ccccc2c1 [Example 49, hydrochloride]
(III) Cc1nccn1Cc1cc(-c2cccc(C3CC3)c2)cnn1 [Example 14, hydrochloride]
(IV) Cc1nccn1Cc1cc(-c2ccc(Cl)c(C(F)F)c2)cnn1 [Example 26, hydrochloride]
[in] I would appreciate it if you could sort these 4 compounds by IC50, starting from the smallest number. Record the ranking as a list of labels in the requested order.
[out] IV, III, II, I

Taken from patent US7005432B2.
